Every entry's value here was drawn from patent US20220089784A1.

- tested.on: BoNT/B3 (Clostridium botulinum)
- assay.remarks: yeast scFv FACS
Here the recorded Kd is given for each entry.

binder	Kd, nM
19A9 scFv (scFv) scFv: EVQLQQPGSELARPGASVKLSCKASGYTFTSYPITWVKQTTGQGLEWIGEIYPRSGNTYYNEKFKGKATLTADKSSSTAYMELRSLTSEDSAVYFCARDYYDYAGGGRGYWGQGTTLTVSSVDLKSGGSTSGSGKPGSGEGSSGSARDIVLTQSPAIMSASPGGKITITCSASSSVSYMHWFQQKPGTSPKLWIYSTSNLASGVPARFSGSGSGTSYSLTISRMEAEDAATYYCQQRSSYPYTFGGGTKLEIK	1.18
18E5 scFv (scFv) scFv: EVQLQESGPELVKPGASVKISCKASGYTFTDHNMDWVKQSLGKSLEWIGDINPNNGGAVYNQNFKGKATLTVDKSSSTAYMELRSLTSEDTAVYYCARYGYYGYFDYWGQGTTLTVSSVDLKSGGSTSGSGKPGSGEGSSGSARQIVLTQSPAIMSASPGEKVTMTCRASSSVSSSYLHWYQQKPGSSPKLWIYSTSNLASGVPARFSGSGSGTSYSLTISSVEAEDAATYYCQQYDSSPSTFGAGTKLEIK	2.56
19D22 scFv (scFv) scFv: QIQLLQSGAELVRPGTSVKMSCKAAGYPFTSYWMGWVKQRPGHGLEWIGDIYPGGPYTNYNEKFKGKATLTADTSSSTAYMQFSSLTSEDSAIYYCALYGQVGSYAMDYWGQGTSVTVSSVDLKSGGSTSGSGKPGSGEGSSGSARQIVLTQSPAIMSASPGEKVTMTCSASSSVSYMYWYQQKPGSSPRLLIYDTSNLASGVPVRFSGSGSGTSYSLTISRMEAEDAATYYCQQWSSYPPITFGAGTKLEIK	3.77
